molecular target: Hemoglobin HbA (Homo sapiens) (UniProt P69905+P68871); assay: Ratio of P50e to P50c (P50 control value with no effector present, 5 mmHg); assay type: functional
Sequence (P68871 2-147 partner limits assumed): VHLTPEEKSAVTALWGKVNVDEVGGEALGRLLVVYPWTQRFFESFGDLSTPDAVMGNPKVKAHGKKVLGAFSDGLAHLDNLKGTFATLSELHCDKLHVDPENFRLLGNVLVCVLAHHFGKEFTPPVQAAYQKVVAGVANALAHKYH
Sequence (P69905 2-142 limits assumed): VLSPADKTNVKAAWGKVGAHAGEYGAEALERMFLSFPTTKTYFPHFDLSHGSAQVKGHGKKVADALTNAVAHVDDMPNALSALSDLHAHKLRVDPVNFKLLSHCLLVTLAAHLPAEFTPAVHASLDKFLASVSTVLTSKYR
We label by threshold. Values of P50e/P50c strictly beneath 3 are 1. Values of 3 and up are -1.

Request: Does the reported P50e/P50c of the following molecule sit strictly below 3? Cc1cc(Cl)cc(NC(=O)Cc2ccc(OC(C)C(=O)O)cc2)c1 (stereo not drawn)
Result: 1

Request: State whether 3 exceeds P50e/P50c recorded for Cc1cc(C)cc(NC(=O)Cc2ccc(O[C@@]3(C(=O)O)CCC[C@@H]3C)cc2)c1 .
Result: -1

Request: Find out if reported P50e/P50c for Cc1cc(C)cc(NC(=O)Cc2ccc(OC3(C(=O)O)CCCC3)cc2)c1 is less than 3
Result: -1

Request: State whether 3 exceeds P50e/P50c recorded for Cc1cc(C)cc(NC(=O)Cc2ccc(OC(F)C(=O)O)cc2)c1 (stereo not drawn) .
Result: 1

Request: Criterion: P50e/P50c strictly below 3. Is it met by CCCC(Oc1ccc(CC(=O)Nc2cc(C)cc(C)c2)cc1)C(=O)O (stereo not drawn) ?
Result: -1

Request: Check if P50e/P50c falls below 3 for CCC(Oc1ccc(CC(=O)Nc2cc(C)cc(Cl)c2)cc1)C(=O)O (stereo not drawn) .
Result: 1

Request: P50e/P50c strictly < 3 for this molecule? Cc1cc(Cl)cc(NC(=O)Cc2ccc(OC3(C(=O)O)CCCC3C)cc2)c1 (stereo not drawn)
Result: -1

Request: API: query returns whether the molecule falls strictly under 3 in P50e/P50c. Query: CCC(Oc1ccc(CC(=O)Nc2ccc3c(c2)CCC3)cc1)C(=O)O (stereo not drawn)
Result: 1

Request: Is it true that P50e/P50c reported for CCC(C)(Oc1ccc(CC(=O)Nc2cc(C)cc(C)c2)cc1)C(=O)O (stereo in doubt; (-)-10) is less than 3?
Result: 1

Request: For this molecule, is P50e/P50c lower than 3? COCC(C)(Oc1ccc(CC(=O)Nc2cc(C)cc(C)c2)cc1)C(=O)O (stereo not drawn)
Result: 1

Request: Check if P50e/P50c falls below 3 for Cc1cc(C)cc(NC(=O)Cc2ccc(O[C@]3(C(=O)O)CCO[C@H]3C)cc2)c1 .
Result: 1

Request: API: query returns whether the molecule falls strictly under 3 in P50e/P50c. Query: Cc1cc(Cl)cc(NC(=O)Cc2ccc(OC(C)(C)C(=O)O)cc2)c1
Result: -1

Request: Dear colleague, could you confirm whether P50e/P50c of CC1CCC(Oc2ccc(CC(=O)Nc3ccc4c(c3)CCC4)cc2)(C(=O)O)C1 (stereo not drawn) falls below 3? Thanks.
Result: 1

Request: Given CCC(C)(Oc1ccc(CC(=O)Nc2cc(C)cc(Cl)c2)cc1)C(=O)O (stereo not drawn) , is recorded P50e/P50c strictly lower than 3?
Result: -1

Request: Please check: P50e/P50c for CC(Oc1ccc(CC(=O)Nc2ccc3c(c2)CCC3)cc1)C(=O)O (stereo not drawn) , strictly under 3 or not?
Result: 1

Request: Here's an entry: CCC(C)(Oc1ccc(CC(=O)Nc2ccc3c(c2)CCC3)cc1)C(=O)O (stereo not drawn) . Is its P50e/P50c below 3?
Result: 1

Request: Please indicate whether the reported P50e/P50c of Cc1cc(C)cc(NC(=O)Cc2ccc(OC(C)C(=O)O)cc2)c1 (single isomer, unassigned; (-)) is strictly below 3.
Result: 1
